experiment: Ratio of IC50 for compound to ratio of IC50 for DiMIQ for BALB mouse 3T3 cells; format: cell-based; conditions: read-out: Ratio IC50
Entries annotated with measured selectivity ratio
Just the number, please, no unit after it.

INSERT INTO results (smiles_entry, recorded_number) VALUES
  ('Cc1c2c3cc(NC(=O)[C@H]4CCCN4)ccc3nc-2n(C)c2ccccc12.Cl.Cl', 5),
  ('Cc1c2c3cc(NC(=O)CN)ccc3nc-2n(C)c2ccccc12.Cl.Cl', 5),
  ('Cc1c2c3cc(NC(=O)[C@@H]4CCCN4C(=O)CN)ccc3nc-2n(C)c2ccccc12.Cl.Cl', 5),
  ('Cc1c2c3cc(NC(=O)[C@@H]4CCCN4)ccc3nc-2n(C)c2ccccc12.Cl.Cl', 5);

We now examine a further compound.
Value lookup for selectivity ratio; key = Cc1c2c3cc(NC(=O)[C@@H]4CCCN4C(=O)[C@@H]4CCCN4)ccc3nc-2n(C)c2ccccc12.Cl.Cl
5
